- System: NIH3T3
- Test Details: Cytotoxic Profiling of Annotated Libraries Using Quantitative High-Throughput Screening (AID 1296008); further: on the % scale 0 is the no-effect control and ±100 the full control effect; nearly all actives have a fitted effect of over 60% in size
- Study Conditions: Five cell lines viability, CellTiter-Glo ATP luminescence, 48-72 h; active compounds read low
Inconclusive results are not listed.
Property Measured: max response (%)
Give just the number in %; leave the unit off.

CCCCCOc1ccccc1/C(=C\SC)n1ccnc1 :: -29.1

Which max response value is on record for C1=CC2C3C=CC(C3)C2C1 (stereo unspecified) ?
0.366

Which max response value is on record for Nc1ccc(C(=O)OCC(O)CO)cc1 (stereo unspecified) ?
2.44

Which max response value is on record for `O=C(Oc1ccccc1)c1ccccc1O` ?
3.3

Which max response value is on record for `O=C(O)C1CCC1` ?
-4.19

Which max response value is on record for `Nc1ccc([N+](=O)[O-])c(C(F)(F)F)c1` ?
0.447

Which max response value is on record for `Oc1ccccc1` ?
3.74

Which max response value is on record for `CCOc1ncc(F)c(=O)[nH]1` ?
-1.34

====

- Test Details: Primary qHTS for inhibitors of La Crosse Virus (LACV) - induced cell death in SH-SY5Y cells (AID 1508616);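 further: top concentration of the series differs between compounds; 0% = infected DMSO wells and 100% = uninfected DMSO wells; higher means more rescue of cells from virus-induced death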
- Study Conditions: SH-SY5Y LACV cytopathicity rescue, ATP luminescence, 6 d; series mostly up to 4.29 µM
Records with an inconclusive call do not appear. Calls of active or inactive are those of the source. Calls come from the whole dose curve; as a rule, active = well fitted inhibition curve with a large enough effect; inconclusive = small, poorly fitted or top-dose-only effect; inactive = no such curve, though single readings can be large or run the other way.
Property Measured: activity change

Solved cases (10 shown):
CC(C)=CCNc1ncnc2c1ncn2[C@@H]1O[C@H](CO)[C@@H](O)[C@H]1O :: inactive
CC(=O)c1cc2ccccc2s1 :: inactive
CN(C(=O)C(Cl)Cl)c1ccc(OC(=O)c2ccco2)cc1 :: inactive
O=C(Nc1ccc(S(=O)(=O)N2CCOCC2)cc1)c1cc(Cl)ccc1NS(=O)(=O)c1ccc(Cl)s1 :: inactive
CCN(CC)C(=O)C1CN2CCc3cc(OC)c(OC)cc3C2CC1OC(C)=O (stereo not drawn) :: inactive
N#C/C(=C1/SC[C@@H](c2ccc(Cl)cc2Cl)S1)n1ccnc1 :: inactive
CN1CC(=O)N2[C@H](c3ccc4c(c3)OCO4)c3[nH]c4ccccc4c3C[C@@H]2C1=O :: inactive
O=C(CCCCCCCCC#CI)Oc1ccccc1 :: inactive
O=S(=O)(O)c1ccc2nc(-c3ccccc3)[nH]c2c1 :: inactive
C[C@H](N)C(=O)N[C@@H](C)C(=O)NC1[C@H]2CN(c3nc4c(cc3F)c(=O)c(C(=O)O)cn4-c3ccc(F)cc3F)C[C@@H]12 (stereo partly drawn) :: inactive

Which activity change value is on record for `COc1ccc([C@@H]2Sc3ccccc3NC(=O)[C@@H]2O)cc1` ?
inactive

Which activity change value is on record for `N#CSCC(=O)O` ?
inactive

Which activity change value is on record for `CN1CCCN=C1/C=C/c1cccs1` ?
inactive

Which activity change value is on record for `C[C@H]1NCc2cc(-c3ccc4c(=O)c(C(=O)O)cn(C5CC5)c4c3OC(F)F)ccc21` ?
inactive

Which activity change value is on record for `Nc1c(NC/C=C\COc2cc(CN3CCCCC3)ccn2)c(=O)c1=O` ?
inactive

Which activity change value is on record for `COc1ccc2c(c1)CCCC2=O` ?
inactive

Which activity change value is on record for Cc1c(F)cc2c(=O)c(C(=O)O)cn3c2c1CCC3C (stereo not drawn) ?
inactive

Which activity change value is on record for `Cc1c(C)c2c(c(C)c1OC(=O)CCC(=O)OCCO)CC[C@@](C)(CCC[C@H](C)CCC[C@H](C)CCCC(C)C)O2` ?
inactive

Which activity change value is on record for `O=C1Nc2cc(Cl)ccc2Oc2ccccc21` ?
inactive

Which activity change value is on record for O=C(CS(=O)Cc1ccco1)NC/C=C\COc1cc(CN2CCCCC2)ccn1 (stereo not drawn) ?
inactive

Which activity change value is on record for `CCOCCn1c(C2CCN(CCc3ccc(C(C)(C)C(=O)O)cc3)CC2)nc2ccccc21` ?
inactive

====

- Tested on: TAB109
- Test Details: qHTS profiling for inhibitors of Plasmodium falciparum proliferation (AID 504749); further: potency means the concentration at half of the fitted maximal effect; nearly all actives have a fitted effect of over 60% in size
- Study Conditions: P. falciparum in erythrocytes, SYBR Green DNA, 72 h; series mostly up to 28.7 µM
Records with an inconclusive call do not appear. Activity calls are given as the source filed them. Calls come from the whole dose curve; as a rule, active = well fitted inhibition curve with a large enough effect; inconclusive = small, poorly fitted or top-dose-only effect; inactive = flat fitted curve, though single readings scatter.
Quick list: Potency per entry.

Nc1c2ccccc2nc2ccccc12 :: 7.08 µM (active)
CCCCCCCCCCCCCC[N+](C)(C)C :: 4.47 µM (active)

Could you share what Potency was measured for `CN1CCC(Nc2ncc3ncnc(Nc4ccc(F)c(Cl)c4)c3n2)CC1` , tested on TAB109?
11.2 µM (active)

Could you share what Potency was measured for `CCCCCCCCCCCCCCCC[N+](C)(C)Cc1ccccc1` , tested on TAB109?
3.98 µM (active)

====

- Test Details: qHTS of pediatric cancer cell lines to identify multiple opportunities for drug repurposing: Confirmatory screen for Rh18 cells (AID 1347125); further: on the % scale 0 is the no-effect control and ±100 the full control effect; nearly all actives have a fitted effect of over 55% in size
- Study Conditions: Rh18 rhabdomyosarcoma cells, viability; series mostly up to 45.9 µM
Results filed as inconclusive are left out. Activity calls are given as the source filed them. The call rests on the fitted dose curve; in most records, active means well fitted cell-killing curve with a large enough effect; inconclusive means small, poorly fitted or top-dose-only effect, or effect the other way; inactive means flat fitted curve, though single readings scatter.
Returns: one label drawn from active, inactive

C[C@]12CCC(=O)C=C1CC[C@@H]1[C@@H]2[C@@H](O)C[C@@]2(C)[C@H]1CC[C@]2(O)C(=O)COC(=O)CCC(=O)O :: inactive

# next compound below
Answer briefly: the call reported for `CC(=O)[C@@]1(O)CC[C@H]2[C@@H]3C[C@H](C)C4=CC(=O)CC[C@]4(C)[C@H]3CC[C@@]21C` in this assay.
inactive

====

- Test Details: Drug repurposing screens with cells derived from glioblastoma tumor samples (AID 1345199); further: on the % scale 0 is the no-effect control and ±100 the full control effect; nearly all actives have a fitted effect of over 40% in size
- Study Conditions: GBM patient neurospheres viability, ATP luminescence, 48 h; at 45.9 µM (top of the series); tumour line B
Records with an inconclusive call do not appear.
Property Measured: activity, negative = cell killing (%)
Give just the number in %; leave the unit off.

Solved cases (5 shown):
CN1C(=O)CC(C)(c2ccccc2)C1=O (stereo unspecified) :: -1.54
Cc1nc([N+](=O)[O-])cn1-c1ccc([N+](=O)[O-])cc1 :: -9.26
CC(=O)N(CC(O)CO)c1c(I)c(C(=O)NCCO)c(I)c(C(=O)NCC(O)CO)c1I (stereo unspecified) :: -10.8
OCc1cccnc1 :: -6.38
Cc1ccccc1C(=O)N1CC/C(=N\OS(=O)(=O)O)c2ccc(Cl)cc21 :: -4.66

Which activity, negative = cell killing value is on record for `O=[N+]([O-])c1nccn1CO[C@@H](CO)[C@H](O)CO` ?
-1.15

Which activity, negative = cell killing value is on record for `Oc1ccc(CCNCCCCCCNCCc2ccccc2)cc1O` ?
-20.6

Which activity, negative = cell killing value is on record for CC(C)C[C@H](NC(=O)CNC(=O)[C@H](Cc1ccc(O)cc1)NC(=O)[C@H](CO)NC(=O)[C@H](Cc1c[nH]c2ccccc12)NC(=O)[C@H](Cc1cnc[nH]1)NC(=O)[C@@H]1CCC(=O)N1)C(=O)N[C@@H](CCCN=C(N)N)C(=O)N1CCC[C@H]1C(=O)NCC(N)=O (stereo in doubt) ?
-6.26

Which activity, negative = cell killing value is on record for CC(=O)OCC(=O)[C@@]1(O)CCC2C3CCC4=CC(=O)CC[C@]4(C)C3[C@@H](O)C[C@@]21C (stereo partly specified) ?
-6.98

Which activity, negative = cell killing value is on record for CC(C)(C)C(=O)OCOC(=O)C1N2C(=O)CC2S(=O)(=O)C1(C)C (stereo unspecified) ?
-8.27

Which activity, negative = cell killing value is on record for CC(CCc1ccc2c(c1)OCO2)NN (stereo unspecified) ?
-11.1

Which activity, negative = cell killing value is on record for CC(NN)c1ccccc1 (stereo unspecified) ?
-17.4

Which activity, negative = cell killing value is on record for `O=C(O)Cc1ccccc1Oc1ccc(Cl)cc1Cl` ?
-7.43

Which activity, negative = cell killing value is on record for `CCCCC(=O)OCC(=O)[C@H]1[C@H](C)C[C@H]2[C@@H]3C[C@H](F)C4=CC(=O)C=C[C@]4(C)[C@@]3(F)[C@@H](O)C[C@@]21C` ?
-0.839

Which activity, negative = cell killing value is on record for `C[N+](C)(CCOc1ccccc1)Cc1cccs1` ?
-1.12

Which activity, negative = cell killing value is on record for COc1cc(C(=O)NC2CCCNC2)cc(OC)c1OC (stereo unspecified) ?
-2.35

Which activity, negative = cell killing value is on record for CC(COc1ccccc1)NN (stereo unspecified) ?
-5.24

Which activity, negative = cell killing value is on record for `CCOc1ccc(NS(=O)(=O)c2ccc(N)cc2)nn1` ?
-20.8

Which activity, negative = cell killing value is on record for `c1ccc(C(O[C@H]2CCCN(CCc3ccc4c(c3)OCO4)C2)c2ccccc2)cc1` ?
-23.2

Which activity, negative = cell killing value is on record for `CSc1ccc(/C=C2/C(C)=C(CC(=O)O)c3cc(F)ccc32)cc1` ?
-6.37

Which activity, negative = cell killing value is on record for `COc1cc(NS(=O)(=O)c2ccc(N)cc2)nc(C)n1` ?
-1.01
